organism: Rattus norvegicus; test: DrugMatrix - Regimen: Daily Repeat; assay type: toxicity, organism-based, Sprague-Dawley; design: regimen Daily Repeat, gender Male, age 6-8 weeks; conditions: in vivo, ip, 40 mg/kg, […], tissue Blood, route intraperitoneal, dose level High, time 28 day, vehicle 100 % SALINE
readout label: ABSOLUTE MONOCYTE
Units required after the number.

Q. // ABSOLUTE MONOCYTE lookup, key: GENTAMICIN
A. 260 cells/µL

----------
organism: Rattus norvegicus; test: DrugMatrix - Regimen: Daily Repeat; format: toxicity, organism-based, Sprague-Dawley; design: regimen Daily Repeat, gender Male, age 6-8 weeks; settings: in vivo, po, 0 mg/kg, 72 h, tissue Plasma, route oral GAVAGE, dose level Control, time 3 day, vehicle .5 % CMC
Outcome: 1 (yes) for TOTAL BILIRUBIN of at least 0.5 mg/dL; 0 (no) for anything lower.

CC(C(=O)O)c1ccc2oc(-c3ccc(Cl)cc3)nc2c1 (configuration not stated) ... 0 (no)
COc1ccc2c3c1O[C@H]1C[C@@H](O)C=C[C@@]31CCN(C)C2 ... 0 (no)
NCCCC(O)(P(=O)(O)O)P(=O)(O)O ... 1 (yes)
COc1ccc(C2C(=O)c3ccccc3C2=O)cc1 ... 1 (yes)
O=C1C(CC[S+]([O-])c2ccccc2)C(=O)N(c2ccccc2)N1c1ccccc1 (configuration not stated) ... 0 (no)

Q. Item CNCCC(Oc1ccc(C(F)(F)F)cc1)c1ccccc1 (configuration not stated) with TOTAL BILIRUBIN of 0.5 mg/dL or above?
A. 1 (yes)

Q. Repeat for the following compound: C[C@H]1O[C@@H](n2cc(F)c(=O)[nH]c2=O)[C@H](O)[C@@H]1O
A. 0 (no)
